experiment: Half-life period after intravenous administration in cynomolgus monkeys; assay type: ADME, organism-based; settings: cercopithecidae, in vivo
Listing: half-life of selected compounds
Return type: number; implicit unit h.

Worked set:
chem_smiles | units_text | half-life
Cn1cc(C(=O)O)c(=O)c2cc(F)c(N3CCN(c4ccccn4)CC3)c(C(F)(F)F)c21 | h | 8.8
O=C(O)c1cn(C2CC2)c2c(C(F)(F)F)c(N3CCN(c4ccccn4)CC3)c(F)cc2c1=O | h | 0.7

Challenge: I'd like to know its half-life. The compound in question is Cn1cc(C(=O)O)c(=O)c2cc(F)c(N3CCN(c4ncccn4)CC3)c(C(F)(F)F)c21
Response given: 7.6
